Target: Poly [ADP-ribose] polymerase tankyrase-1 (Homo sapiens)
Quantity Name: IC50 (nM)
Give a bare numeral; the unit nM is implied.

Prompt: I am curious: what IC50 value has been reported for CC(C)(C)c1ccc(-c2nc3ccccc3c(=O)[nH]2)cc1 ?
Response: 5

###

Target: Poly [ADP-ribose] polymerase tankyrase-1 (Homo sapiens)
Sequence (O95271 whole entry): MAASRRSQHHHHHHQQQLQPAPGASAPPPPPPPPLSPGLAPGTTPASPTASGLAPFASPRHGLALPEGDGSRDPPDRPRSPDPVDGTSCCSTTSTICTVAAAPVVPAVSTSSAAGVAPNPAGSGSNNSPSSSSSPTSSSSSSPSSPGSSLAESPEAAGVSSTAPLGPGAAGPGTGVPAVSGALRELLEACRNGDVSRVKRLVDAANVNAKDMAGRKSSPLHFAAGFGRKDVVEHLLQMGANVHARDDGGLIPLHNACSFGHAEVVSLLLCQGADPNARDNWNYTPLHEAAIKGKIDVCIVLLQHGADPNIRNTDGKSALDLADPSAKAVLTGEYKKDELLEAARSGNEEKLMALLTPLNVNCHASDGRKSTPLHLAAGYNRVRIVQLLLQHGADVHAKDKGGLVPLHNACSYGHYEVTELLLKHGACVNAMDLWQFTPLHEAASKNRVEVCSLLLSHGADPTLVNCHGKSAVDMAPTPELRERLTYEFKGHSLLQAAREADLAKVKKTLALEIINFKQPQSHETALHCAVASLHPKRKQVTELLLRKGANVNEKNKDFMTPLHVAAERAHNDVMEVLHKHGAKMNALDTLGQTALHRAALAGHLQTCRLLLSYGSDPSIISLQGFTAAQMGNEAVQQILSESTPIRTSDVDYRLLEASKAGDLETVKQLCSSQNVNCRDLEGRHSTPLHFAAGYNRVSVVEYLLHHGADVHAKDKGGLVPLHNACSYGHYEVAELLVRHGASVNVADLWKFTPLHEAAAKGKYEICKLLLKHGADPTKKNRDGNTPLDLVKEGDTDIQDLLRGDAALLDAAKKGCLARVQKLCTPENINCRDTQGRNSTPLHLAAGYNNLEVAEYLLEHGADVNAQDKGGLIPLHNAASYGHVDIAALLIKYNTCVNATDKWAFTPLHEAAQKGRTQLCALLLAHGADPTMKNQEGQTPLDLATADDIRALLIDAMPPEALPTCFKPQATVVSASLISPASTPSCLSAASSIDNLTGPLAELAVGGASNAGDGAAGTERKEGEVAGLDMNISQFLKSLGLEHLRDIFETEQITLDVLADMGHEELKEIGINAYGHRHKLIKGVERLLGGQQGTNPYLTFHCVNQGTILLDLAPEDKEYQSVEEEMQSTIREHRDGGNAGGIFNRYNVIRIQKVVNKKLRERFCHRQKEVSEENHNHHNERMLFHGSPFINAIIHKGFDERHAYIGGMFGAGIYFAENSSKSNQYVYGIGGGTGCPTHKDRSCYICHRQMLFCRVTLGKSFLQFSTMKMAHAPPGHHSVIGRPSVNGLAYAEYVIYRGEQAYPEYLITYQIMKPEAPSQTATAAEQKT
Experiment: Inhibition of TNKS1 (unknown origin)
Quantity Name: pIC50
Note on pIC50: it is the negative log10 of concentration, concentration in mol/L.

Prompt: Report pIC50 for Cn1c(-c2ccc(Cl)cc2Cl)nc(=O)c2cccnc21 please.
Response: 4.96
